# target_entity: T1, cMetECDHis (human, UniProt P08581 25-932, limits assumed, biotinylated in the cross-block ELISA of Example 17)
# T1 construct: Expressed in HEK-293F cells; also called soluble cMetECDHis; biotinylated cMetECDHis
# experiment_summary: cross-block ELISA; competitor 181
Could you please report measured residual binding, % of no competitor for the items listed next?
Answers are plain numbers, in %.

Using known records, supply residual binding, % of no competitor for anti-c-Met HuMab 035 (IgG1) (antibody, V domains shown, also called P1016-035; TH1016-035-D09) VH: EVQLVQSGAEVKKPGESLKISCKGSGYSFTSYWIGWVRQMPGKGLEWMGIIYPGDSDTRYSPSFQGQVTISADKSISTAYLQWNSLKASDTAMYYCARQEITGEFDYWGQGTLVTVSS VL: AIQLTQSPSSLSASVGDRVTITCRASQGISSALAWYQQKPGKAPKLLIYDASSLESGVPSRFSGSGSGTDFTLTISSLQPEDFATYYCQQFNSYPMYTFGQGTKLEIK 159

Using known records, supply residual binding, % of no competitor for anti-c-Met HuMab 181 (IgG1) (antibody, V domains shown, also called TH1016-181; PC1016-181) VH: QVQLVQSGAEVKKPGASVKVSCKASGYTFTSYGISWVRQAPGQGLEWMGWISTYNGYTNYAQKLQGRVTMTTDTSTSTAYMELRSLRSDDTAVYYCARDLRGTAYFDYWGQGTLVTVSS VL: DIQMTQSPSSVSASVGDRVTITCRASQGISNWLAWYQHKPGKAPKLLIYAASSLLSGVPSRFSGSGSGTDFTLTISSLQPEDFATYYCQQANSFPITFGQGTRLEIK 3.6

Using known records, supply residual binding, % of no competitor for anti-c-Met HuMab 005 (IgG1) (antibody, V domains shown, also called TH1016-005; PC1016-005) VH: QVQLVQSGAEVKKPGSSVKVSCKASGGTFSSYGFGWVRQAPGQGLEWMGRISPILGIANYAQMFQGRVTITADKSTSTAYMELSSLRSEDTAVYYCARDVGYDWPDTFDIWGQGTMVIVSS VL: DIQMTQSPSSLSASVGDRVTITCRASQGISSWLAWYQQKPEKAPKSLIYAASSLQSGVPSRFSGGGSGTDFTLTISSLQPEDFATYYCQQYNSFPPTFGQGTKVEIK 131

Now for a further binder.
Using known records, supply residual binding, % of no competitor for anti-c-Met HuMab 045 (IgG1) (antibody, V domains shown, also called TH1016-045; PC1016-045) VH: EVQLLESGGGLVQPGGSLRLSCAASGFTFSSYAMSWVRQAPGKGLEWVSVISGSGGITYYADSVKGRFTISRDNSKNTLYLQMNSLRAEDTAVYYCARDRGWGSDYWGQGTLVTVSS VL: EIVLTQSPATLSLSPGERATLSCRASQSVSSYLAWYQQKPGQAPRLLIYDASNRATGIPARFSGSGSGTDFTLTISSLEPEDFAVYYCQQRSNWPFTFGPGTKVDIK 99.4
